# assay comment: Stability in rat serum measured as % recovery at 5 mins
# Type: ADME
# measurement conditions: read-out: Recovery
Peptide text beside a SMILES is read from it.
measured attribute: remaining at 5 min (%)
API: value field is a number in %; no unit string.

remaining at 5 min measured on N=C(N)NCCC[C@H](NC(=O)[C@@H](N)Cc1ccccc1)C(=O)Nc1ccc2ccccc2c1 [PABETAN] (HELM PEPTIDE1{F.R.[c1ccc2cc(N[*:1])ccc2c1]}$$$$V2.0) = 55

###

# System: Pseudomonas aeruginosa
# assay comment: Compound was evaluated in PAM 1032 strain of Pseudomonas aeruginosa for its effect on levofloxacin ( 5 ug/mL) potentiation
# Assay type: functional
measured attribute: MIC
Note: state the figure and append the unit.

>>> result("NCCC[C@H](NC(=O)[C@@H](N)CCc1ccccc1)C(=O)Nc1cnc2ccccc2c1")
"1 µg/mL"
>>> result("NCCC[C@@H](N)C(=O)N[C@H](CCc1ccccc1)C(=O)Nc1cnc2ccccc2c1")
"4 µg/mL"
>>> result("NCCC[C@H](N)C(=O)N[C@H](CCc1ccccc1)C(=O)Nc1cnc2ccccc2c1")
"2 µg/mL"
>>> result("NCCC[C@H](N)C(=O)N[C@@H](CCc1ccccc1)C(=O)Nc1cnc2ccccc2c1")
"4 µg/mL"

Turning to the following compound.
The value of MIC measured for the compound `NCCC[C@@H](N)C(=O)N[C@@H](CCc1ccccc1)C(=O)Nc1cnc2ccccc2c1` turned out to be 1 µg/mL

Data origin: ChEMBL document CHEMBL1134217
